method: Stability in mouse plasma assessed as esterase-mediated compound hydrolysis by measuring parent compound remaining after 6 hrs
Type: ADME, cell-free
settings: read-out: Stabilty

>  <smiles-repr>
CCCCCC[C@H]1OC(=O)CNC(=O)[C@H]([C@H](C)O)NC(=O)[C@H](CO)NC(=O)[C@H]([C@H](C)CC)NC(=O)[C@H](CC(C)C)N(C)C(=O)[C@@H]1C

>  <remaining at 6 h, %>
49

$$$$

====

Test system: Enterobacter cloacae
method: Inhibition of LspA in Enterobacter cloacae assessed as inhibition of bacterial growth
Starred links: 1 amine or outer side, 2 acyl side, 3 side chain; linkers in the order of their positions; H or OH if unused. Non-standard residues stand in square brackets, D forms with d. Residues, ends and D or L forms follow the SMILES beside them. *: point of attachment. X6 = C[C@H](CO[C@H](CC1C[C@H]2CC[C@@H](C1)C2)[C@@H](C)C(=O)[*:2])N[*:1]; X3 = C[C@H](CO[C@H](CC1CC2(CCC2)C1)[C@@H](C)C(=O)[*:2])N[*:1]; X1 = CCCCCC[C@@H](OC[C@@H](C)N[*:1])[C@@H](C)C(=O)[*:2]; Cyclobutyl(trans-3-NH2) = N[C@H]1C[C@H](*)C1; Gly(cHept) = N[C@H](C(=O)O)C1CCCCCC1; NMeNva = CCC[C@H](NC)C(=O)O; X2 = NC[C@H]1C[C@H](*)C1; Dap = NC[C@H](N)C(=O)O; X5 = NCCCNCCC*
Each entry below carries its recorded MIC.

>  <compound>
CCCCCC[C@H]1OC(=O)CNC(=O)[C@H]([C@H](C)O)NC(=O)[C@H](CO)NC(=O)[C@H]([C@H](C)CC)NC(=O)[C@H](CC(C)C)N(C)C(=O)[C@@H]1C

>  <MIC [µM]>
100

$$$$
>  <compound>
CCC[C@H]1C(=O)N[C@@H](C2CCCCCC2)C(=O)N[C@@H](CN)C(=O)N[C@@H](COCCCNCCCN)C(=O)N[C@H](C)CO[C@H](CC2C[C@H]3CC[C@@H](C2)C3)[C@@H](C)C(=O)N1C (stereo partly specified) (cyclo([Dap]S(X5)[X6][NMeNva][Gly(cHept)]))

>  <MIC [µM]>
1.6

$$$$
>  <compound>
CCC[C@H]1C(=O)N[C@@H](C2CCCCCC2)C(=O)N[C@@H](CN)C(=O)N[C@@H](COCCCNCCCN)C(=O)N[C@H](C)CO[C@H](CC2CC3(CCC3)C2)[C@@H](C)C(=O)N1C (cyclo([Dap]S(X5)[X3][NMeNva][Gly(cHept)]))

>  <MIC [µM]>
3.1

$$$$
>  <compound>
CCC[C@H]1C(=O)N[C@@H](C2CCCCCC2)C(=O)N[C@@H](CN)C(=O)N[C@@H](CO[C@H]2C[C@H](N)C2)C(=O)N[C@H](C)CO[C@H](CC2CC3(CCC3)C2)[C@@H](C)C(=O)N1C (cyclo([Dap]S(Cyclobutyl(trans-3-NH2))[X3][NMeNva][Gly(cHept)]))

>  <MIC [µM]>
6.3

$$$$
>  <compound>
CCCCCC[C@H]1OC[C@@H](C)NC(=O)[C@H](CO[C@H]2C[C@H](CN)C2)NC(=O)[C@H](CN)NC(=O)[C@H](C2CCCCCC2)NC(=O)[C@H](CCC)N(C)C(=O)[C@@H]1C (cyclo([Dap]S(X2)[X1][NMeNva][Gly(cHept)]))

>  <MIC [µM]>
6.3

$$$$
>  <compound>
CCC[C@H]1C(=O)N[C@@H](C2CCCCCC2)C(=O)N[C@@H](CN)C(=O)N[C@@H](CO[C@H]2C[C@H](N)C2)C(=O)N[C@H](C)CO[C@H](CC2C[C@H]3CC[C@@H](C2)C3)[C@@H](C)C(=O)N1C (stereo partly drawn) (cyclo([Dap]S(Cyclobutyl(trans-3-NH2))[X6][NMeNva][Gly(cHept)]))

>  <MIC [µM]>
3.1

$$$$

====

This listing pairs molecules with measured logD.
method: Lipophilicity, logD of the compound at pH 7.4
settings: buffer, pH 7.4, logD

>  <smiles-repr>
CC[C@@H](C)[C@@H]1NC(=O)[C@H](CC(C)C)N(C)C(=O)[C@H](C)[C@@H](CCCCC(C)(C)C)OC(=O)CNC(=O)[C@H]([C@H](C)O)NC(=O)[C@H](CN)NC1=O

>  <logD>
3

$$$$
>  <smiles-repr>
CCCCCC[C@H]1OC[C@@H](C)NC(=O)[C@H](COc2ccc(CCN)cc2)NC(=O)[C@H](CN)NC(=O)[C@H](C2CCCCC2)NC(=O)[C@H](CCC)N(C)C(=O)[C@@H]1C

>  <logD>
2.4

$$$$
>  <smiles-repr>
CCCCCC[C@H]1OC[C@@H](C)NC(=O)[C@H](COc2ccc(CN)cc2)NC(=O)[C@H](CN)NC(=O)[C@H](C2CCCCC2)NC(=O)[C@H](CCC)N(C)C(=O)[C@@H]1C

>  <logD>
2.5

$$$$

====

The compounds listed here are annotated with their MIC.
Tested on: Escherichia coli CFT073
method: Inhibition of LspA in wild type Escherichia coli CFT073 assessed as inhibition of bacterial growth
Starred links: 1 amine or outer side, 2 acyl side, 3 side chain; linkers in the order of their positions; H or OH if unused. Non-standard residues stand in square brackets, D forms with d. Residues, ends and D or L forms follow the SMILES beside them. Groups on a side chain read outwards from the residue. *: point of attachment. dAlaψ(CH2NBu)Nle = CCCC[C@@H](C(=O)[*:2])N(CCCC)C[C@@H](C)N[*:1]; X1 = CCCCCC[C@@H](OC[C@@H](C)N[*:1])[C@@H](C)C(=O)[*:2]; Cyclobutyl(trans-3-NH2) = N[C@H]1C[C@H](*)C1; Gly(cHept) = N[C@H](C(=O)O)C1CCCCCC1; NMeL = CN[C@@H](CC(C)C)C(=O)O; Chg = N[C@H](C(=O)O)C1CCCCC1; NMeNva = CCC[C@H](NC)C(=O)O; X13 = N[C@H]1C[C@H](N*)C1; Dap = NC[C@H](N)C(=O)O; Propyl(3-NH2) = NCCC*; CO = O=C([*:1])[*:2]; NH(CH2)3NH2 = NCCCN*; X11 = NCCCC*

>  <compound>
CCCCCC[C@H]1OC[C@H](C)NC(=O)[C@H]([C@H](C)O)NC(=O)[C@H](CN)NC(=O)[C@H](C2CCCCC2)NC(=O)[C@H](CC(C)C)N(C)C(=O)[C@@H]1C

>  <target>
Escherichia coli CFT073

>  <qualifier-symbol>
=

>  <MIC [µM]>
84

$$$$
>  <compound>
CCCCCC[C@H]1OC(=O)CNC(=O)[C@H]([C@H](C)O)NC(=O)[C@H](CN)NC(=O)[C@H](C2CCCCCC2)NC(=O)[C@H](CC(C)C)N(C)C(=O)[C@@H]1C

>  <target>
Escherichia coli CFT073

>  <qualifier-symbol>
=

>  <MIC [µM]>
1.1

$$$$
>  <compound>
CCCCCC[C@H]1OC[C@@H](C)NC(=O)[C@H](CN(C)CCCN)NC(=O)[C@H](CN)NC(=O)[C@H](C2CCCCCC2)NC(=O)[C@H](CCC)N(C)C(=O)[C@@H]1C

>  <target>
Escherichia coli CFT073

>  <qualifier-symbol>
=

>  <MIC [µM]>
8.8

$$$$
>  <compound>
CCCCCC[C@H]1OC(=O)CNC(=O)[C@H]([C@H](C)O)NC(=O)[C@H](CN)NC(=O)[C@H]([C@H](C)CC)NC(=O)[C@H](CC(C)C)N(C)C(=O)[C@@H]1C

>  <target>
Escherichia coli CFT073

>  <qualifier-symbol>
=

>  <MIC [µM]>
8.6

$$$$
>  <compound>
CCCC[C@H]1C(=O)N(C)[C@@H](CCC)C(=O)N[C@@H](C2CCCCC2)C(=O)N[C@@H](CN)C(=O)N[C@@H](CO[C@H]2C[C@H](N)C2)C(=O)N[C@H](C)CN1CCCC (cyclo([Chg][Dap]S(Cyclobutyl(trans-3-NH2))[dAlaψ(CH2NBu)Nle][NMeNva]))

>  <target>
Escherichia coli CFT073

>  <qualifier-symbol>
=

>  <MIC [µM]>
6.3

$$$$
>  <compound>
CCCCCC[C@H]1OC(=O)CNC(=O)[C@H]([C@H](C)O)NC(=O)[C@H](CN)NC(=O)[C@H]([C@@H](C)OC)NC(=O)[C@H](CC(C)C)N(C)C(=O)[C@@H]1C

>  <target>
Escherichia coli CFT073

>  <qualifier-symbol>
>

>  <MIC [µM]>
100

$$$$
>  <compound>
CCCCCC[C@H]1OC[C@@H](C)NC(=O)[C@H](CNCCCN)NC(=O)[C@H](CN)NC(=O)[C@H](C2CCCCCC2)NC(=O)[C@H](CCC)N(C)C(=O)[C@@H]1C

>  <target>
Escherichia coli CFT073

>  <qualifier-symbol>
=

>  <MIC [µM]>
3.1

$$$$
>  <compound>
CCCCCC[C@H]1OC[C@@H](C)NC(=O)[C@H](COCCCN)NC(=O)[C@H](CN)NC(=O)[C@H](C2CCCCC2)NC(=O)[C@H](CC(C)C)N(C)C(=O)[C@@H]1C (cyclo([Chg][Dap]S(Propyl(3-NH2))[X1][NMeL]))

>  <target>
Escherichia coli CFT073

>  <qualifier-symbol>
=

>  <MIC [µM]>
11

$$$$
>  <compound>
CCCCCC[C@H]1OC(=O)CNC(=O)[C@H]([C@H](C)O)NC(=O)[C@H](CN)NC(=O)[C@H](Cc2ccccc2)NC(=O)[C@H](CC(C)C)N(C)C(=O)[C@@H]1C

>  <target>
Escherichia coli CFT073

>  <qualifier-symbol>
=

>  <MIC [µM]>
50

$$$$
>  <compound>
CC(C)C[C@H]1C(=O)N[C@@H](C2CCCCC2)C(=O)N[C@@H](CN)C(=O)N[C@@H]([C@H](C)O)C(=O)NCC(=O)O[C@H](CCCCCCC(C)(C)O)[C@@H](C)C(=O)N1C

>  <target>
Escherichia coli CFT073

>  <qualifier-symbol>
=

>  <MIC [µM]>
15

$$$$
>  <compound>
CCC[C@H]1C(=O)N[C@@H](C2CCCCCC2)C(=O)N[C@@H](CN)C(=O)N[C@@H]([C@H](C)O)C(=O)NCC(=O)O[C@H](CC2CC3CCC2C3)[C@@H](C)C(=O)N1C (stereo in doubt; 26)

>  <target>
Escherichia coli CFT073

>  <qualifier-symbol>
=

>  <MIC [µM]>
0.97

$$$$
>  <compound>
CCCCCC[C@H]1C(=O)N(C)[C@@H](CC(C)C)C(=O)N[C@@H](C2CCCCC2)C(=O)N[C@@H](CN)C(=O)N[C@@H]([C@H](C)O)C(=O)NCCN1C

>  <target>
Escherichia coli CFT073

>  <qualifier-symbol>
=

>  <MIC [µM]>
12

$$$$
>  <compound>
CCCCCCCCCC[C@H]1OC(=O)CNC(=O)[C@H]([C@H](C)O)NC(=O)[C@H](C)NC(=O)[C@H]([C@@H](C)CC)NC(=O)[C@H](CC(C)C)N(C)C(=O)[C@@H]1C

>  <target>
Escherichia coli CFT073

>  <qualifier-symbol>
=

>  <MIC [µM]>
100

$$$$
>  <compound>
CCCCCC[C@H]1OC[C@@H](C)NC(=O)[C@H](CC(=O)NCCCN)NC(=O)[C@H](CN)NC(=O)[C@H](C2CCCCCC2)NC(=O)[C@H](CCC)N(C)C(=O)[C@@H]1C (cyclo(D(NH(CH2)3NH2)[X1][NMeNva][Gly(cHept)][Dap]))

>  <target>
Escherichia coli CFT073

>  <qualifier-symbol>
=

>  <MIC [µM]>
18

$$$$
>  <compound>
CCCCCC[C@H]1OC[C@@H](C)NC(=O)[C@H]([C@H](C)O)NC(=O)[C@H](CN)NC(=O)[C@H](C2CCCCC2)NC(=O)[C@H](CC(C)C)N(C)C(=O)[C@@H]1C

>  <target>
Escherichia coli CFT073

>  <qualifier-symbol>
=

>  <MIC [µM]>
2.9

$$$$
>  <compound>
CCCCCC[C@H]1OC[C@@H](C)NC(=O)[C@H](COCCCCN)NC(=O)[C@H](CN)NC(=O)[C@H](C2CCCCC2)NC(=O)[C@H](CC(C)C)N(C)C(=O)[C@@H]1C (cyclo([Chg][Dap]S(X11)[X1][NMeL]))

>  <target>
Escherichia coli CFT073

>  <qualifier-symbol>
=

>  <MIC [µM]>
7

$$$$
>  <compound>
CCCCCCCCCC[C@H]1OC(=O)CNC(=O)[C@H]([C@H](C)O)NC(=O)[C@H](CCN)NC(=O)[C@H]([C@@H](C)CC)NC(=O)[C@H](CC(C)C)N(C)C(=O)[C@@H]1C

>  <target>
Escherichia coli CFT073

>  <qualifier-symbol>
=

>  <MIC [µM]>
25

$$$$
>  <compound>
CCCCCC[C@H]1OC[C@@H](C)NC(=O)[C@H](COCCCCN)NC(=O)[C@H](CN)NC(=O)[C@H](C2CCCCCC2)NC(=O)[C@H](CCC)N(C)C(=O)[C@@H]1C (cyclo([Dap]S(X11)[X1][NMeNva][Gly(cHept)]))

>  <target>
Escherichia coli CFT073

>  <qualifier-symbol>
=

>  <MIC [µM]>
6.3

$$$$
>  <compound>
CCCCCC[C@H]1OC[C@@H](C)NC(=O)[C@H](CNC(=O)N[C@H]2C[C@H](N)C2)NC(=O)[C@H](CN)NC(=O)[C@H](C2CCCCCC2)NC(=O)[C@H](CCC)N(C)C(=O)[C@@H]1C (cyclo([Dap][Dap]([CO-X13])[X1][NMeNva][Gly(cHept)]))

>  <target>
Escherichia coli CFT073

>  <qualifier-symbol>
=

>  <MIC [µM]>
12

$$$$
